System: RS4; 11 leukaemia cell line
Assay: In vitro cytotoxicity, Microculture Tetrazolium Assay (MTT)
Type: cell-based
Details: Homo sapiens, 11 cells exposed for 48 hours
Reported endpoint: IC50 (nM)
Numbers only here, please. The scale is nM.

As a guide, the following entries are already answered.
Substance smiles	Assay target	Quantity unit	IC50
C[C@@H]1Cc2ccccc2CN1C(=O)c1cc2c(cc1-c1cc(C(=O)N(c3ccccc3)c3ccc(O)cc3)c3n1CCCC3)CN(C(=O)OC(C)(C)C)C2	RS4; 11 leukaemia cell line	nM	502
C[C@@H]1Cc2ccccc2CN1C(=O)c1cc2c(cc1-c1cc(C(=O)N(C)c3ccc(O)cc3)c3n1CCCC3)CN(C(=O)CNc1ccccc1)C2	RS4; 11 leukaemia cell line	nM	43
Cc1c(C(=O)N(C)c2ccc(O)cc2)cc(-c2cc3c(cc2C(=O)N2Cc4ccccc4C[C@H]2CCCN2CCOCC2)CN(C(=O)OC2CCCCC2)CC3)n1C	RS4; 11 leukaemia cell line	nM	9.8

### Prompt State the recorded IC50 for this entry: `C[C@@H]1Cc2ccccc2CN1C(=O)c1cc2c(cc1-c1cc(C(=O)N(C)c3ccc(O)cc3)c3ccccn13)CN(C(=O)COc1ccccc1)C2`
### Response 20

====

Target: Bcl-2 protein (histag-Bcl-2, UniProtKB P10415) (Homo sapiens (Human), UniProt P10415)
Sequence (P10415 whole entry): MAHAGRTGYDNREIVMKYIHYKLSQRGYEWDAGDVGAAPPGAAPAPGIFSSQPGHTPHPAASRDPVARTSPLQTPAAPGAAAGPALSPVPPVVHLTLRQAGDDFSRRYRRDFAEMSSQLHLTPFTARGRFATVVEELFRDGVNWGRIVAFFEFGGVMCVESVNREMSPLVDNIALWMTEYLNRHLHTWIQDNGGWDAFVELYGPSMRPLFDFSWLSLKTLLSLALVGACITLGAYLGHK
Experiment: Inhibition of Bcl-2 by the fluorescence polarisation technique
Assay type: binding
Details: fluorescence polarisation test; incubation for 2 hours; read-out: IC50 (nM) Bcl-2 FP
Reported endpoint: IC50 (nM)
Give the number; nM is assumed, so skip it.

Below are worked cases with known answers.
Compound	Assay target	Reported endpoint	Endpoint result
C[C@@H]1Cc2ccccc2CN1C(=O)c1cc2c(cc1-c1cc(C(=O)N(C)c3ccc(O)cc3)c3n1CCCC3)CCN(C(=O)Oc1ccc(CCC(=O)N(C)C)cc1)C2 [Example 155]	Bcl-2 protein (histag-Bcl-2, UniProtKB P10415) (Homo sapiens (Human), UniProt P10415)	IC50	3.2
Cc1c(C(=O)N(C)c2ccc(O)cc2)cc(-c2cc3c(cc2C(=O)N2Cc4ccccc4C[C@H]2CN2CCOCC2)CN(C(=O)Oc2ccc(Cl)c(Cl)c2)CC3)n1C [Example 573]	Bcl-2 protein (histag-Bcl-2, UniProtKB P10415) (Homo sapiens (Human), UniProt P10415)	IC50	18

### Prompt Tell me the measured IC50 of Cc1c(C(=O)N(C)c2ccccc2)cc(-c2cc3c(cc2C(=O)N2Cc4ccccc4C[C@H]2CCCN2CCOCC2)CN(C(=O)OC2CCCCC2)CC3)n1C [Example 811] , please.
### Response 3.8

====

Biological target: Bcl-2 protein (histag-Bcl-2, UniProtKB P10415) (Homo sapiens (Human), UniProt P10415)
Assay: Inhibition of Bcl-2 by the fluorescence polarisation technique
Format: binding
Settings: fluorescence polarisation test; incubation for 2 hours; read-out: IC50 (nM) Bcl-2 FP
Counter-ions that a name gives are not always drawn.
Reported endpoint: log10 of IC50 (log10 of the value in nM)
Record value = log10 of IC50 given in nM.

Illustrative cases are given below, each with its answer.
Compound	Endpoint result
Cc1c(C(=O)N(C)c2ccc(O)cc2)cc(-c2cc3c(cc2C(=O)N2Cc4ccccc4C[C@H]2CCN2CCOCC2)CN(C(=O)Oc2ccccc2)CC3)n1C	0.38
Cc1c(C(=O)N(C)c2ccc(O)cc2)cc(-c2cc3c(cc2C(=O)N2Cc4ccccc4C[C@H]2CN2CCOCC2)CN(C(=O)Oc2ccc4cc[nH]c4c2)CC3)n1C	0.80
CN(C(=O)c1cc(-c2cc3c(cc2C(=O)N2Cc4ccccc4C[C@H]2CN2CCOCC2)CN(S(=O)(=O)c2ccccc2)C3)n2c1CCCC2)c1ccc(O)cc1 [Example 19, hydrochloride]	1.67
CN(C(=O)c1cc(-c2cc3c(cc2C(=O)N2Cc4ccccc4C[C@H]2CN2CCOCC2)CN(C(=O)NCc2ccccc2)CC3)n2c1CCCC2)c1ccc(O)cc1	0.64

Let us move to another entry and its log10 of IC50.
### Prompt # query: log10 of IC50 | item Cc1c(C(=O)N(C)c2ccc(O)cc2)cc(-c2cc3c(cc2C(=O)N2Cc4ccccc4C[C@H]2C)CN(C(=O)OC2CCC(N(C)C)CC2)CC3)n1C (some centres unmarked) | system: Bcl-2 protein (histag-Bcl-2, UniProtKB P10415) (Homo sapiens (Human), UniProt P10415)
### Response 0.60

====

log10 of IC50 listing for selected compounds.
System: RS4; 11 leukaemia cell line
Assay: In vitro cytotoxicity, Microculture Tetrazolium Assay (MTT)
Format: cell-based
Conditions: Homo sapiens, 11 cells exposed for 48 hours
Procedure: The cytotoxicity studies were carried out on the RS4; 11 leukaemia cell line and on H146 small Cell Lung Carcinoma cell line. The cells are distributed onto microplates and exposed to the test compounds for 48 hours. The cell viability is then quantified by a colorimetric assay, the Microculture Tetrazolium Assay (Cancer Res., 1987, 47, 939-942).
log10 IC50, nM

Compound	Reported endpoint	Endpoint result
Cc1ccccc1OC(=O)N1CCc2cc(-c3cc(C(=O)N(C)c4ccc(O)cc4)c4n3CCCC4)c(C(=O)N3Cc4ccccc4C[C@H]3CN3CCOCC3)cc2C1 [Example 100]	log10 of IC50	0.81

### Prompt Can you look up the measured log10 of IC50 of Cc1ccc(CC(=O)N2CCc3cc(-c4cc(C(=O)N(C)c5ccc(O)cc5)c5n4CCCC5)c(C(=O)N4Cc5ccccc5C[C@H]4C)cc3C2)cc1 [Example 54] for me?
### Response 0.38

====

Molecular target: Bcl-2 protein (histag-Bcl-2, UniProtKB P10415) (Homo sapiens (Human), UniProt P10415)
Assay: Inhibition of Bcl-2 by the fluorescence polarisation technique
Assay type: binding
Conditions: fluorescence polarisation test; incubation for 2 hours; read-out: IC50 (nM) Bcl-2 FP
Counter-ions that a name gives are not always drawn.
Measured IC50 values are reported for all entries that follow.
# number only, unit nM dropped from output

Example cases with answers are listed next.
Compound	Reported endpoint	Endpoint result
Cc1c(C(=O)N(C)c2ccc(O)cc2)cc(-c2cc3c(cc2C(=O)N2Cc4ccccc4C[C@H]2C)CN(C(=O)NC2CCCCC2)CC3)n1C	IC50	4.6
C[C@@H]1Cc2ccccc2CN1C(=O)c1cc2c(cc1-c1cc(C(=O)N(C)c3ccc(O)cc3)c3n1CCCC3)CN(C(=O)CSc1ccccc1)C2	IC50	5.1
Cc1ccc(OC(=O)N2CCc3cc(-c4cc(C(=O)N(c5ccc(O)cc5)c5cc(C#N)n(C)c5C)c(C)n4C)c(C(=O)N4Cc5ccccc5C[C@H]4CN4CCOCC4)cc3C2)cc1 [Example 805, hydrochloride]	IC50	3.1
Cc1c(C(=O)N(C)c2ccc(O)cc2)cc(-c2cc3c(cc2C(=O)N2Cc4ccccc4C[C@H]2CN(C)C)CN(C(=O)Oc2ccccc2)CC3)n1C	IC50	3.4
Cc1ccc(OC(=O)N2Cc3cc(C(=O)N4Cc5ccccc5C[C@H]4C)c(-c4cc(C(=O)N(C)c5ccc(O)cc5)c(C)n4C)cc3C2)cc1	IC50	3.5

### Prompt Give its IC50 value. Item: `Cc1c(C(=O)N(C)c2ccc(O)cc2)cc(-c2cc3c(cc2C(=O)N2Cc4ccccc4C[C@H]2C)CN(C(=O)CN2CCCCC2)C3)n1C`
### Response 78

====

Tested on: RS4; 11 leukaemia cell line
Assay: In vitro cytotoxicity, Microculture Tetrazolium Assay (MTT)
Assay type: cell-based
Conditions: Homo sapiens, 11 cells exposed for 48 hours
Structures can show the parent of a compound that is named as a salt.
Threshold check on IC50: strictly below 80 nM is y; on or above 80 nM is n.

Examples from the recorded data:
Compound	Cat
C[C@@H]1Cc2ccccc2CN1C(=O)c1cc2c(cc1-c1cc(C(=O)N(C)c3ccc(O)cc3)c3n1CCCC3)CCN(C(=O)Cc1ccc(NCCN(C)C)cc1)C2 [Example 108, hydrochloride]	y
Cc1c(C(=O)N(C)c2ccc(O)cc2)cc(-c2cc3c(cc2C(=O)N2Cc4ccccc4C[C@H]2CN2CCOCC2)CN(C(=O)CC2CCCCC2)CC3)n1C [Example 794]	y
Cc1ccc(OC(=O)N2CCc3cc(-c4cc(C(=O)N(C)c5ccccc5)c(C)n4C)c(C(=O)N4Cc5ccccc5C[C@H]4CN4CCOCC4)cc3C2)cc1 [Example 591]	y

Note: attention shifts to another entry.
### Prompt Please state whether IC50 is below 80 nM for C[C@@H]1Cc2ccccc2CN1C(=O)c1cc2c(cc1-c1cc(C(=O)N(C)c3ccc(O)cc3)c3n1CCCC3)CCN(C(=O)CCc1ccc(NCCN(C)C)cc1)C2 [Example 138]
### Response n

====

Test system: RS4; 11 leukaemia cell line
Assay: In vitro cytotoxicity, Microculture Tetrazolium Assay (MTT)
Format: cell-based
Details: Homo sapiens, 11 cells exposed for 48 hours
Structures can show the parent of a compound that is named as a salt.
met if IC50 is below 60 nM. not met if not; exact matches included in not met.

Recorded results for 2 compounds are shown here.
Compound	Cat
C[C@@H]1Cc2ccccc2CN1C(=O)c1cc2c(cc1-c1cc(C(=O)N(C)c3ccc(O)cc3)c3n1CCCC3)CCN(C(=O)Oc1ccccc1)C2	met
Cc1c(C(=O)N(C)c2ccc(O)cc2)cc(-c2cc3c(cc2C(=O)N2Cc4ccccc4C[C@H]2CN2CCOCC2)CN(C(=O)OC2CCCCC2)CC3)n1C	met

### Prompt Hello, is IC50 of the following compound strictly smaller than 60 nM? `Cc1c(C(=O)N(C)c2ccc(O)cc2)cc(-c2cc3c(cc2C(=O)N2Cc4ccccc4C[C@H]2CN2CCOCC2)CN(C(=O)Oc2ccc(Br)cc2)CC3)n1C`
### Response met

### Prompt Dear colleague, could you confirm whether IC50 of `CN(C)C(=O)c1ccc(OC(=O)N2CCc3cc(-c4cc(C(=O)N(C)c5ccc(O)cc5)c5n4CCCC5)c(C(=O)N4Cc5ccccc5C[C@H]4CN4CCOCC4)cc3C2)cc1` falls below 60 nM? Thanks.
### Response met

### Prompt API: query returns whether the compound falls strictly under 60 nM in IC50. Query: `Cc1c(C(=O)N(C)c2ccccc2)cc(-c2cc3c(cc2C(=O)N2Cc4ccccc4C[C@H]2C)CN(C(=O)Oc2ccccc2)CC3)n1C`
### Response met

### Prompt I'd appreciate it if you could check whether `C[C@@H]1Cc2ccccc2CN1C(=O)c1cc2c(cc1-c1cc(C(=O)N(C)c3ccc(O)cc3)c3n1CCCC3)CN(CCC1CCCCC1)C2` has IC50 smaller than 60 nM.
### Response not met

### Prompt Threshold test, IC50 < 60 nM: `CN(C(=O)c1cc(-c2cc3c(cc2C(=O)N2Cc4ccccc4C[C@H]2CN2CCOCC2)CN(C(=O)OC(C)(C)C)CC3)n2c1CCCC2)c1ccc(O)cc1`
### Response not met

### Prompt Hi there! Is IC50 for `C[C@@H]1Cc2ccccc2CN1C(=O)c1cc2c(cc1-c1cc(C(=O)N(C)c3ccc(O)cc3)c3n1CCCC3)CN(CCCc1ccccc1)C2` below 60 nM, do you know?
### Response not met

### Prompt Input `CN(C(=O)c1cc(-c2cc3c(cc2C(=O)N2Cc4ccccc4C[C@H]2CN2CCOCC2)CN(C(=O)COc2ccccc2)C3)n2ccccc12)c1ccc(O)cc1` ; condition: IC50 strictly below 60 nM. Does it hold?
### Response met

### Prompt Is it true that IC50 reported for CCS(=O)(=O)N1Cc2cc(C(=O)N3Cc4ccccc4C[C@H]3CN3CCOCC3)c(-c3cc(C(=O)N(C)c4ccc(O)cc4)c4n3CCCC4)cc2C1 [Example 18, hydrochloride] is less than 60 nM?
### Response not met

### Prompt Could you please tell me whether IC50 recorded for `Cc1c(C(=O)N(C)c2ccccc2)cc(-c2cc3c(cc2C(=O)N2Cc4ccccc4C[C@H]2C)CN(C(=O)Cc2ccccc2)CC3)n1C` is less than 60 nM?
### Response met
